Where do the numbers come from? From patent US8906908B2.

Please respond with reported pIC50 for every item in the list.
- measuredTarget: α4β4-nAChR (Homo sapiens, UniProt P30926+P43681)
- Sequence (P43681 29-627 limits assumed): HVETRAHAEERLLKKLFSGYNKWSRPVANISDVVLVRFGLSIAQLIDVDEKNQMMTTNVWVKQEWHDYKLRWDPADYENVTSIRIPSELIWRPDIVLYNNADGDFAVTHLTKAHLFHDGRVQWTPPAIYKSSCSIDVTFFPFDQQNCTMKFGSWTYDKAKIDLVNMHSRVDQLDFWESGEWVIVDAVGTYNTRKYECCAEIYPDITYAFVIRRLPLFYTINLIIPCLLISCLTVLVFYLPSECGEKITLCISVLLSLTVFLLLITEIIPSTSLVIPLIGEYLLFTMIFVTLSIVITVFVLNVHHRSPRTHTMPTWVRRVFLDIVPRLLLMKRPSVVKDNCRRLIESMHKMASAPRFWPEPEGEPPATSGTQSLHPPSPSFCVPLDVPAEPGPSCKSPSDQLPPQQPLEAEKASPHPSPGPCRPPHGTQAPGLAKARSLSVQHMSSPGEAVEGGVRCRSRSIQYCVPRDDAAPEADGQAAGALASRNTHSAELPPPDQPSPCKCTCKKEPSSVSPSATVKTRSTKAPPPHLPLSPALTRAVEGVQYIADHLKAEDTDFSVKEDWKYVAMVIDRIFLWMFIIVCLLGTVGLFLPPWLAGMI
- Sequence (P30926 22-498): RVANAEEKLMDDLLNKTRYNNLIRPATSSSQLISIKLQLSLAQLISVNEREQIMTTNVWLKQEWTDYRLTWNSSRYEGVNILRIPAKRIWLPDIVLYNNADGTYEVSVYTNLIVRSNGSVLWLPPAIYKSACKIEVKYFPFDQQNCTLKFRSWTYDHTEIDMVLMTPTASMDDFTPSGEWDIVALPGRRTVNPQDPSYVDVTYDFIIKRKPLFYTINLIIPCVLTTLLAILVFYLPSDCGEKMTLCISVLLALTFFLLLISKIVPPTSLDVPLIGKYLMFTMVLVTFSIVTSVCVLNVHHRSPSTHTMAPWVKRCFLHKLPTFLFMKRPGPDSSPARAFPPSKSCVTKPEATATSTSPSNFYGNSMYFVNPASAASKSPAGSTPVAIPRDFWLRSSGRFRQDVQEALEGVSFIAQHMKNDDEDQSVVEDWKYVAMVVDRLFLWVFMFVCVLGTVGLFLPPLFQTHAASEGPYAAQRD
- test: 86Rb+ efflux nAChR functional assay, SH-EP1-hα4β4 cells
- measurementSetup: EC80-EC90 carbamylcholine, parentheses = S.E.M. as multiplication/division factor, read-out: nAChR inhibition IC50 α4β4
Answers are plain numbers, as −log10 of the molar value.

- compound: "C[C@@H]1NC(C)(C)CO[C@@]1(O)c1cccc(Br)c1"
  pIC50: 4.52
- compound: "CC1NC(C)(C)COC1(O)c1cc(Cl)cc(Cl)c1 (racemic)"
  pIC50: 4.74

Parameter requested: pIC50. Apply to each item below.
1. C[C@@H]1N(C)C(C)(C)CO[C@@]1(O)c1ccc(Cl)cc1
2. COc1ccc([C@]2(O)OCC(C)(C)N[C@H]2C)cc1
3. CC1NC(C)(C)COC1(O)c1ccc(Cl)c(Cl)c1 (racemic)
4. C[C@@H]1NC(C)(C)CO[C@@]1(O)c1cccc2ccccc12
5. C[C@@H]1NC(C)(C)CO[C@@]1(O)c1ccccc1

Result string:
1. 4.04
2. 4.14
3. 4.85
4. 4.89
5. 4.04

* * *

- System: Male Institute of Cancer Research (ICR) mice
- test: Tail-flick test, blockade of nicotine-induced antinociception
- Assay type: in vivo
- measurementSetup: Mus musculus, 5 min, mice; pretreatment 15 min before nicotine 2.5 mg/kg s.c.; tested 5 min after nicotine; read-out: AD50 Tail-flick
- Experimental: Animals: Male Institute of Cancer Research (ICR) mice (weighing 20-25 g) obtained from Harlan (Indianapolis, Ind.) were used throughout the study. […] Tail-Flick Test: Antinociception for pain mediated at the spinal level was assessed by the tail-flick method of D'Amour, F. E.; Smith, D. L., J. Pharmacol. Exp. Ther. 1941, 72, 74-79, incorporated herein by reference in its entirety. […] Latency to remove the tail from the heat source was recorded for each animal. […]
Binary label based on ED50 with cut-off 0.05 mg/kg: below gives Satisfied, not below gives Not satisfied.

Some solved cases for reference:
- molecule: "C[C@@H]1NC(C)(C)CO[C@@]1(O)c1cccc(Br)c1 [Compound 4d]"
  classLabel: "Not satisfied"
- molecule: "C[C@@H]1NC(C)(C)CO[C@@]1(O)c1cccc(Cl)c1 [Compound (2S,3S)-4a, reference compound]"
  classLabel: "Not satisfied"
- molecule: "C[C@@H]1NC(C)(C)CO[C@@]1(O)c1ccc2ccccc2c1 [Compound 4r]"
  classLabel: "Satisfied"
- molecule: "CC(NC(C)(C)C)C(=O)c1cccc(Cl)c1 (racemic) [Compound 2, reference compound]"
  classLabel: "Not satisfied"

Query string: For this molecule, is ED50 lower than 0.05 mg/kg? Cc1cccc([C@]2(O)OCC(C)(C)N[C@H]2C)c1 [Compound 4e]
Result string: Not satisfied

* * *

- measuredTarget: NE transporters [h(NET)] (Homo sapiens)
- Construct: expressed in transfected cells; host or cells: HEK-293
- Sequence (P23975 whole entry): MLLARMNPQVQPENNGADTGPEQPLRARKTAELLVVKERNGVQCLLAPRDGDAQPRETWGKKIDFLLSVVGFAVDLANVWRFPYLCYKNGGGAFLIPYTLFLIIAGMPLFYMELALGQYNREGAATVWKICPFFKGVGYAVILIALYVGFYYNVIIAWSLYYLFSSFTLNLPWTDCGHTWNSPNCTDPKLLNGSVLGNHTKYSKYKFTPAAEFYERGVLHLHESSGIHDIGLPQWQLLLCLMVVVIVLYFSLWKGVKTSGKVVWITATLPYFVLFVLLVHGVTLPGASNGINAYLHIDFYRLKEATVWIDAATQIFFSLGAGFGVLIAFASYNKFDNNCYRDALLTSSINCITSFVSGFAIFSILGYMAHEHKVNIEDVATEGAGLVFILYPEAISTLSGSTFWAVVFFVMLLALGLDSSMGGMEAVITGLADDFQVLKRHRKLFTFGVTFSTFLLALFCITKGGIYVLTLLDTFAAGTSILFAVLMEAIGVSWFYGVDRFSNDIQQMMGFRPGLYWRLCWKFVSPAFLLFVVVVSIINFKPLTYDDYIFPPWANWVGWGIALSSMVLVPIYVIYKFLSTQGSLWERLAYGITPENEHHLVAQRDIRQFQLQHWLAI
- test: Inhibition of [3H]norepinephrine uptake into HEK293 cells stably expressing hNET
- Assay type: cell-based
- measurementSetup: ratio of uptake IC50 values
Could you please report measured selectivity for inhibition of NE over DA uptake for the items listed next?
One number for each entry, in fold.

Examples from the recorded data:
- molecule: "C[C@@H]1NC(C)(C)CO[C@@]1(O)c1cccc2ccccc12 [Compound 4q]"
  measuredTarget: "NE transporters [h(NET)] (Homo sapiens)"
  displayUnit: "fold"
  reportedResult: 24
- molecule: "C[C@@H]1NC(C)(C)CO[C@@]1(O)c1cccc([N+](=O)[O-])c1 [Compound 4g]"
  measuredTarget: "NE transporters [h(NET)] (Homo sapiens)"
  displayUnit: "fold"
  reportedResult: 10
- molecule: "CC[C@@H]1NC(C)(C)CO[C@@]1(O)c1cccc(Cl)c1 [Compound 4s]"
  measuredTarget: "NE transporters [h(NET)] (Homo sapiens)"
  displayUnit: "fold"
  reportedResult: 5

Query string: # query: selectivity for inhibition of NE over DA uptake | item COc1cccc([C@]2(O)OCC(C)(C)N[C@H]2C)c1 [Compound 4f] | system: NE transporters [h(NET)] (Homo sapiens)
Result string: 5

* * *

- measuredTarget: α4β4-nAChR (Homo sapiens, UniProt P30926+P43681)
- test: 86Rb+ efflux nAChR functional assay, SH-EP1-hα4β4 cells
- measurementSetup: EC80-EC90 carbamylcholine, parentheses = S.E.M. as multiplication/division factor, read-out: nAChR inhibition IC50 α4β4
Consider the following compounds; for each one, report its IC50.
Numbers only, in µM.

// known answers, use as guide
- molecule: "C[C@@H]1N(C)C(C)(C)CO[C@@]1(O)c1cccc(Cl)c1"
  displayUnit: "µM"
  IC50: 43
- molecule: "C[C@@H]1NC(C)(C)CO[C@@]1(O)c1ccc(-c2ccccc2)cc1"
  displayUnit: "µM"
  IC50: 8.1

Read the next record carefully.
Query string: Fill in: IC50 of Cc1cccc([C@]2(O)OCC(C)(C)N[C@H]2C)c1 is ___
Result string: 64

* * *

Answer each item with its documented ED50.
- Test system: Male Institute of Cancer Research (ICR) mice
- test: Hot-plate test, blockade of nicotine-induced antinociception
- Assay type: in vivo
- measurementSetup: Mus musculus, pretreatment 15 min before nicotine 2.5 mg/kg s.c., tested 5 min after nicotine, read-out: AD50 Hot-plate
Give bare numbers, in mg/kg.

A selection of reference data follows.
- compound: "C[C@@H]1NC(C)(C)CO[C@@]1(O)c1cccc(Cl)c1 [Compound (2S,3S)-4a, reference compound]"
  measuredTarget: "Male Institute of Cancer Research (ICR) mice"
  ED50 (mg/kg): 1
- compound: "C[C@H]1NC(C)(C)CO[C@]1(O)c1cccc(Cl)c1 [Compound (2R,3R)-4a, reference compound]"
  measuredTarget: "Male Institute of Cancer Research (ICR) mice"
  ED50 (mg/kg): 10.3

Query string: So what does the record say about ED50 for CC(NC(C)(C)C)C(=O)c1cccc(Cl)c1 (racemic) [Compound 2, reference compound] ?
Result string: 15

* * *

- measuredTarget: α4β2-nAChR (Homo sapiens, UniProt P17787+P43681)
- Construct: expressed in transfected cells; host or cells: SH-EP1 epithelial cells (SH-EP1-hα4β2)
- Sequence (P43681 29-627 limits assumed): as the sequence (P43681 29-627 limits assumed) above
- Sequence (P17787 26-502): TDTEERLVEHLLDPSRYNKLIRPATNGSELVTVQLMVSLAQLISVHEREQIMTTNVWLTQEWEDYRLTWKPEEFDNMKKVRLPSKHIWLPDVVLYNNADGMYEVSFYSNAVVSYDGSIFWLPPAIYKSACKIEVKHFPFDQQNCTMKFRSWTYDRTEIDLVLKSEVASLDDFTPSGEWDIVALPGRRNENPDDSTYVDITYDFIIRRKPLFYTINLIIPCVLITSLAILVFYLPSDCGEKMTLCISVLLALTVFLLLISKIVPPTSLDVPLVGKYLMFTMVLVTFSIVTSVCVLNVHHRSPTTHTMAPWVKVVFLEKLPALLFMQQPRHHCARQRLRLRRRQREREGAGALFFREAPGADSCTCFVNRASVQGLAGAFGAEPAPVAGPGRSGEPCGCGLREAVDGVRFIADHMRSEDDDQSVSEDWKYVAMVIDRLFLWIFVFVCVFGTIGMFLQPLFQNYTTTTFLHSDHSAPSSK
- test: 86Rb+ efflux nAChR functional assay, SH-EP1-hα4β2 cells
- Type: cell-based
- measurementSetup: EC80-EC90 carbamylcholine; SH-EP1-hα4β2; parentheses = S.E.M. as multiplication/division factor; read-out: nAChR inhibition IC50 α4β2
Answer each item with its documented IC50.
Answers are plain numbers, in µM.

Check out these entries, answers already filled in.
- molecule: "C[C@@H]1NC(C)(C)CO[C@@]1(O)c1ccc(-c2ccccc2)cc1"
  measuredTarget: "α4β2-nAChR (Homo sapiens, UniProt P17787+P43681)"
  displayUnit: "µM"
  IC50: 1.8
- molecule: "C[C@@H]1NC(C)(C)CO[C@@]1(O)c1cc(F)cc(F)c1"
  measuredTarget: "α4β2-nAChR (Homo sapiens, UniProt P17787+P43681)"
  displayUnit: "µM"
  IC50: 6.3
- molecule: "C[C@@H]1NC(C)(C)CO[C@@]1(O)c1ccccc1"
  measuredTarget: "α4β2-nAChR (Homo sapiens, UniProt P17787+P43681)"
  displayUnit: "µM"
  IC50: 6.4
- molecule: "COc1ccc([C@]2(O)OCC(C)(C)N[C@H]2C)cc1"
  measuredTarget: "α4β2-nAChR (Homo sapiens, UniProt P17787+P43681)"
  displayUnit: "µM"
  IC50: 27
- molecule: "CC1NC(C)(C)COC1(O)c1ccc(Cl)c(Cl)c1 (racemic)"
  measuredTarget: "α4β2-nAChR (Homo sapiens, UniProt P17787+P43681)"
  displayUnit: "µM"
  IC50: 20
- molecule: "Cc1cccc([C@]2(O)OCC(C)(C)N[C@H]2C)c1"
  measuredTarget: "α4β2-nAChR (Homo sapiens, UniProt P17787+P43681)"
  displayUnit: "µM"
  IC50: 6
- molecule: "CC1NC(C)(C)COC1(O)c1cc(Cl)cc(Cl)c1 (racemic)"
  measuredTarget: "α4β2-nAChR (Homo sapiens, UniProt P17787+P43681)"
  displayUnit: "µM"
  IC50: 11
- molecule: "C[C@@H]1NC(C)(C)CO[C@@]1(O)c1ccc(Cl)cc1"
  measuredTarget: "α4β2-nAChR (Homo sapiens, UniProt P17787+P43681)"
  displayUnit: "µM"
  IC50: 9.2
- molecule: "C[C@@H]1NC(C)(C)CO[C@@]1(O)c1cccc([N+](=O)[O-])c1"
  measuredTarget: "α4β2-nAChR (Homo sapiens, UniProt P17787+P43681)"
  displayUnit: "µM"
  IC50: 4.8
- molecule: "Cc1ccc([C@]2(O)OCC(C)(C)N[C@H]2C)cc1"
  measuredTarget: "α4β2-nAChR (Homo sapiens, UniProt P17787+P43681)"
  displayUnit: "µM"
  IC50: 12

State recorded IC50 for all listed molecules.
1. C[C@@H]1NC(C)(C)CO[C@@]1(O)c1cccc2ccccc12
2. C[C@@H]1N(C)C(C)(C)CO[C@@]1(O)c1cccc(Cl)c1
3. C[C@@H]1NC(C)(C)CO[C@@]1(O)c1cccc(F)c1
4. CC[C@@H]1NC(C)(C)CO[C@@]1(O)c1cccc(Cl)c1
5. C[C@@H]1NC(C)(C)CO[C@@]1(O)c1ccc(F)c(F)c1

Result string:
1. 9
2. 7.1
3. 1.3
4. 2.9
5. 12
